Source listed as ChEMBL document CHEMBL4765297.

test system: N2a; experiment: Cytotoxicity against mouse N2a cells assessed as reduction in cell viability incubated for 3 hrs by MTT assay; assay type: cell-based
EXPERIMENTAL ENDPOINT: Activity

Provide measured Activity value, entry: `C/C(=N\Nc1ccnc2cc(Cl)ccc12)c1ccc2c(c1)Nc1ccccc1S2` Non-Toxic

Provide measured Activity value, entry: `Cc1cc(/C=N/Nc2ccnc3cc(Cl)ccc23)c(C)cc1/C=N/Nc1ccnc2cc(Cl)ccc12` Non-Toxic

Provide measured Activity value, entry: `CCc1ccc(CNC(=O)CSc2c3c(nc4cc(Cl)ccc24)CCCC3)cc1` Non-Toxic

Provide measured Activity value, entry: `Cn1c(=O)c2cc(C(=O)Nc3ccc(Oc4ccccc4)cc3)sc2c2ccc(Cl)cc21` Non-Toxic

Provide measured Activity value, entry: `Cn1c(=O)c2cc(C(=O)N3CCC(Cc4ccccc4)CC3)sc2c2ccc(Cl)cc21` Non-Toxic

***
Provide measured Activity value, entry: `COC(=O)c1ccc(COc2ccc(/C=N/Nc3ccnc4cc(Cl)ccc34)cc2OC)cc1` Non-Toxic
